- System: CP252
- Protocol details: qHTS profiling for inhibitors of Plasmodium falciparum proliferation (AID 504749); also: nearly all actives have a fitted effect of over 60% in size
- Measurement setup: P. falciparum in erythrocytes, SYBR Green DNA, 72 h; series mostly up to 28.7 µM
- Experimental: NIH National Institute of Allergy and Infectious Diseases [NIAID] NIH Chemical Genomics Center [NCGC] […] Because mature erythrocytes lack DNA, only Plasmodium-derived DNA is detected. NCGC Assay Protocol Summary: The SYBR Green viability assay was adapted from a method described previously (Plouffe et al., 2008). […] The following morning, fluorescence intensity at 485(14) nm excitation and 535(25) nm emission wavelengths was measured on an EnVision (Perkin Elmer) plate reader. […]
Results filed as inconclusive are left out. Active and inactive are the calls of the source. Calls follow the shape of the dose curve; as a rule, active = well fitted inhibition curve with a large enough effect; inconclusive = small, poorly fitted or top-dose-only effect; inactive = flat fitted curve, though single readings scatter.
// allowed return values: active, inactive

> print(dat)
                                   compound  label.value
1             Clc1ccccc1-c1nc(-c2ccncc2)no1     inactive
2                    O=C(/C=C/c1ccccc1)NCCO     inactive
3            c1ccc2sc(SSc3nc4ccccc4s3)nc2c1     inactive
4  C#C[C@]1(O)CC[C@H]2[C@@H]3CCc4cc(O)ccc4[C@H]3CC[C@@]21C     inactive
5        CCCCCC[C@@H](O)C/C=C\CCCCCCCC(=O)O     inactive

**Query** Could you kindly confirm the outcome this assay logged for Cc1ccccc1CNc1ncnc2c1ncn2C1OC(CO)C(O)C1O (stereo not given) ?
**Result** inactive

**Query** Same question for Cc1ccc(C(=O)c2ccc(CC(=O)O)n2C)cc1 please.
**Result** inactive

**Query** Same question for CN(C)c1ccc(C(=C2C=CC(=[N+](C)C)C=C2)c2ccccc2)cc1 please.
**Result** active

**Query** Same question for O=C(O)[C@H](O)[C@@H](O)[C@H](O)[C@H](O)CO please.
**Result** inactive

**Query** Same question for C=CCN1C(=O)C(CC(C)C)NC1=S (stereo not given) please.
**Result** inactive

* * *

- Subject of test: Atrial natriuretic peptide receptor 2 (Homo sapiens)
- Protocol details: Natriuretic polypeptide receptor (hNpr2) antagonism - Pilot subtype selectivity assay (AID 1347050)
- Measurement setup: NPR2-expressing cells, cGMP antagonist-mode read-out; series mostly up to 38.3 µM
Inconclusive results are not listed. Active and inactive are the calls of the source. Calls come from the whole dose curve.
// allowed return values: active, inactive

**Query** Could you kindly confirm the outcome this assay logged for CC(=O)/C=C1\C(=O)N(C)c2ccccc21 ?
**Result** active

**Query** Same question for CO/S(=N\S(=O)(=O)c1ccc(Cl)cc1)c1ccc([N+](=O)[O-])cc1 (stereo not given) please.
**Result** inactive

* * *

- Subject of test: Furin (Homo sapiens)
- Protocol details: Furin counterscreen qHTS for Zika virus inhibitors (AID 1347149); also: potency is read from the fitted curve at half-maximal effect; nearly all actives have a fitted effect of over 70% in size
- Measurement setup: furin enzymatic counterscreen, fluorogenic substrate; series mostly up to 57.5 µM
- Description: Avindra Nath, Ph.D., National Institute of Neurological Disorders and Stroke (NINDS), Bethesda, MD Radhakrishnan Padmanabhan, Ph.D., Georgetown University (GU), Washington D.C. Zika Virus causes congenital defects, including microcephaly and is associated with Guillain-Barre syndrome, eningoencephalitis and myelitis in infected adult. […]
Records with an inconclusive call do not appear. Activity calls are given as the source filed them. Calls follow the shape of the dose curve; as a rule, active = well fitted inhibition curve with a large enough effect; inconclusive = small, poorly fitted or top-dose-only effect; inactive = no such curve, though single readings can be large or run the other way.
Kindly supply the reported Potency values for the records listed here.

> print(dat)
                    structure.smiles.string    result.value
1  COc1ccc(Br)cc1S(=O)(=O)NC(=O)/C=C/c1ccccc1Cc1ccc2ccccc2c1  27 µM (active)

Please look at the following molecule next.
**Query** Endpoint output: Potency of CN1CCN(c2cc3c(nn2)Oc2ccccc2N3C)CC1 . Value?
**Result** 11.8 µM (active)

* * *

- Protocol details: Quantitative high throughput screen for delayed death inhibitors of the malarial parasite plastid, 96 hour incubation (AID 488745); also: nearly all actives have a fitted effect of over 70% in size
- Measurement setup: Plasmodium falciparum growth; series mostly up to 28.7 µM
Results filed as inconclusive are left out. Activity calls are given as the source filed them. The call rests on the fitted dose curve; in most records, active means well fitted inhibition curve with a large enough effect; inconclusive means small, poorly fitted or top-dose-only effect, or effect the other way; inactive means no such curve, though single readings can be large or run the other way.
// allowed return values: TRUE = active, FALSE = inactive

Before answering, review these 10 worked examples.
> print(dat)
                                    compound  label.value
 1  OCC1O[C@H](O)C(Cl)C(O)C1O (stereo partly drawn)        FALSE
 2           COc1cc2c(CCNC(C)=O)c[nH]c2cc1Cl        FALSE
 3                 Cc1ccc(O)c(N=Nc2ccccc2)n1        FALSE
 4              NCCNC(=O)c1ncsc1-c1cccc(F)c1        FALSE
 5  CCCCCCCCCCCCCCCC(=O)OC(CC(=O)O)C[N+](C)(C)C (stereo not drawn)        FALSE
 6  CC12C(=O)OC(=O)C1(C)C1CCC2O1 (stereo not drawn)         TRUE
 7  N#C/C(=C\c1c[nH]c2ccccc12)C(=O)c1ccc(O)c(O)c1        FALSE
 8           O=C1NC(O)=NC1(c1ccccc1)c1ccccc1        FALSE
 9                               NCCCCC(=O)O        FALSE
10       O=C(O)c1cc(=O)c2c(Cl)cc(Cl)cc2[nH]1        FALSE

**Query** Could you kindly confirm the outcome this assay logged for Cn1c(=O)c2[nH]c(-c3ccccc3)nc2n(C)c1=O ?
**Result** FALSE

**Query** Same question for N=C(N)SCCc1ccc(CCSC(=N)N)cc1 please.
**Result** FALSE

**Query** Same question for Ic1ccc(N2CCN(Cc3c[nH]c4ncccc34)CC2)cc1 please.
**Result** FALSE

* * *

- Subject of test: N-terminal Xaa-Pro-Lys N-methyltransferase 1 (Homo sapiens) (UniProt Q9BV86)
- Sequence (Q9BV86 whole entry, looked up): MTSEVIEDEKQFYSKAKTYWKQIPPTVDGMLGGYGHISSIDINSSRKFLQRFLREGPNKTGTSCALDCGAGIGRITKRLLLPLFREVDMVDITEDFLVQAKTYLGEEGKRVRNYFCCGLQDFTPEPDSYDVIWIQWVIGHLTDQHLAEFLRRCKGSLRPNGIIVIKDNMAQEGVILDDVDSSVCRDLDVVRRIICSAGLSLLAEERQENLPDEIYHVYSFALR
- Protocol details: qHTS Assay for Inhibitors of N-terminal methyltransferase 1 (NTMT1): LOPAC validation of the NTMT1 SAHH-coupled ThioGlo3 Assay (AID 1347143);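 also: SAH from peptide methylation measured as thiol fluorescence via SAHH coupling and ThioGlo3; nearly all actives have a fitted effect of over 70% in size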; also: potency is read from the fitted curve at half-maximal effect
- Measurement setup: recombinant NTMT1, SAHH-coupled ThioGlo3 fluorescence; series mostly up to 114 µM
Inconclusive results are not listed. Activity calls are given as the source filed them. Calls follow the shape of the dose curve; as a rule, active = well fitted inhibition curve with a large enough effect; inconclusive = small, poorly fitted or top-dose-only effect; inactive = no such curve, though single readings can be large or run the other way.
Readout label: Potency

Worked examples follow.
> print(dat)
                                   compound  readout.label      result.value
1              CN(C)C(N)=NCCC[C@H](N)C(=O)O        Potency          inactive
2              O=C(Nc1ccc2[nH]ncc2c1)C1CCC1        Potency          inactive
3     Cn1c(=O)c2[nH]c(-c3ccccc3)nc2n(C)c1=O        Potency  79.4 µM (active)
4  C[N+](C)(C)CCOP(=O)(O)OP(=O)([O-])OC[C@H]1O[C@@H](n2ccc(N)nc2=O)[C@H](O)C1O (stereo partly specified)        Potency          inactive
5  OC[C@H]1O[C@@H](n2cnc3c(NC4CCCCC4)ncnc32)[C@H](O)[C@@H]1O        Potency          inactive
6  O=C(CCc1ccncc1)NNC(=O)N1Cc2ccccc2Oc2ccc(Cl)cc21        Potency          inactive

Give me Potency for each of these compounds, listed below.
1. NC[C@H]1O[C@@H](n2cnc3c(N)ncnc32)[C@H](O)[C@@H]1O
2. CCCCCCCC/C=C\CCCCCCCC(=O)NCCO
3. Cc1ccc(S(=O)(=O)/C=C/C#N)cc1
4. CCCCCCCCCCCCCCCCCCN(CCCCCCCCCCCCCCCCCC)CCCN(CCO)CCO
5. CC(=O)N[C@H](C(=O)O)C(C)(C)SN=O

**Result**
1. inactive
2. inactive
3. 5.62 µM (active)
4. inactive
5. inactive

* * *

- Protocol details: High Content Imaging Cell-Based qHTS for Inhibitors of the mTORC1 Signaling Pathway in MEF (Tsc2-/-, p53-/-) Cells (AID 2666);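 also: percent of cells scored positive for phospho-rpS6 Ser235/236 immunostaining by imaging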
- Measurement setup: series mostly up to 38.3 µM
Records with an inconclusive call do not appear. Activity calls are given as the source filed them. The call rests on the fitted dose curve; in most records, active means well fitted inhibition curve with a large enough effect; inconclusive means small, poorly fitted or top-dose-only effect; inactive means flat fitted curve, though single readings scatter.
Readout label: outcome

Worked examples follow.
> print(dat)
                                    molecule  readout.label  result.value
 1    Ic1ccc(N2CCN(Cc3c[nH]c4ncccc34)CC2)cc1        outcome      inactive
 2  COc1cc(OC)c(/C=C2/C(=O)Nc3ccccc32)c(OC)c1        outcome      inactive
 3  O=c1[nH]c2cc([N+](=O)[O-])c([N+](=O)[O-])cc2[nH]c1=O        outcome      inactive
 4  CCNC(=O)[C@H]1O[C@@H](n2cnc3c(N)nc(NCCc4ccc(CCC(=O)O)cc4)nc32)[C@H](O)[C@@H]1O        outcome      inactive
 5      CC1OC1P(=O)(O)O (stereo unspecified)        outcome      inactive
 6       O=C(O)c1cc(=O)c2c(Cl)cc(Cl)cc2[nH]1        outcome      inactive
 7                     NS(=O)(=O)C#Cc1ccccc1        outcome      inactive
 8  CC(C)CC(NP(=O)(O)O[C@@H]1O[C@@H](C)[C@H](O)[C@@H](O)[C@H]1O)C(=O)NC(Cc1c[nH]c2ccccc12)C(=O)O (stereo partly specified)        outcome      inactive
 9           CC(=O)N[C@H](C(=O)O)C(C)(C)SN=O        outcome      inactive
10  O=C(O)CNC(=O)C(CS)Cc1ccccc1 (stereo unspecified)        outcome      inactive

**Query** Endpoint output: outcome of CO/S(=N\S(=O)(=O)c1ccc(Cl)cc1)c1ccc([N+](=O)[O-])cc1 (stereo unspecified) . Value?
**Result** inactive
